# assay.comment: Pharmacokinetic measurements in T2DM rats (plasma concentrations by UPLC-MS/MS, two-compartment PK model)
# Type: in vivo
# condition.context: rat, plasma, po, 10 mg/kg; read-out: Cmax
experimental.endpoint: Cmax (ng/mL)

N#C[C@@H]1C[C@@H]2C[C@@H]2N1C(=O)[C@@H](N)C12CC3CC(CC(O)(C3)C1)C2 [SAX, Saxagliptin]	2200

====

# assay.comment: Pharmacokinetic measurements in T2DM rats (plasma concentrations by UPLC-MS/MS, two-compartment PK model)
# Format: in vivo
# condition.context: rat, plasma, po, 10 mg/kg, T2DM rats, i.g. 10 mg/kg SAX, two-compartment model with first order absorption, mean (n = 3); read-out: t1/2Ka (absorption phase half-life) (converted)
experimental.endpoint: half-life

N#C[C@@H]1C[C@@H]2C[C@@H]2N1C(=O)[C@@H](N)C12CC3CC(CC(O)(C3)C1)C2	4.2 min
